details: in DMF, 283.23 K
observation_type: solubility (mole fraction)
Respond numerically, and do not add a unit to the figure.

Param item = N[C@@H](C(=O)O)c1ccc(O)cc1 ; retrieve measured solubility (mole fraction).
2.39e-05

###

conditions: in tetrachloromethane, 318.24 K
observation_type: solubility (mole fraction)
Lab note: record the figure alone, no unit after it.

Requested field: solubility (mole fraction). Item: N[C@@H](C(=O)O)c1ccc(O)cc1
0.000264

###

settings: in DMF, 303.18 K
observation_type: solubility (mole fraction)
Response field accepts a number only; no unit should be typed.

Can you share its solubility (mole fraction)? I mean this molecule: N[C@@H](C(=O)O)c1ccc(O)cc1
4.93e-05

FYI, the data here is from BigSolDB 2.1.
